All values here come from patent EP2469278A1.

# Measured on: T1, hen egg-white lysozyme (hen, UniProt P00698 19-147)
# T1 construct: also called HEL
# Experiment notes: from Kd in solution: fluorescence titration of conjugate against competition Biacore of H4S(wt)
This listing pairs binders with measured ΔΔG (conjugate against H4S(wt)).

| Binder | ΔΔG (conjugate against H4S(wt)) |
| --- | --- |
| H4S conjugate, IANBD fluorophore coupled at position Lys28 (designed binder, Cys at position 28 (H4S numbering) coupled to IANBD ester (ANBD)) MRGSHHHHHHGSVKVKFFWNGEEKEVDTSKIVWVKRAGCSVLFIYDDNGKNGYGDVTEKDAPKELLDMLARAEREKKLN | ≤ 0.5 kcal/mol |
| H4S conjugate, IANBD fluorophore coupled at position Thr46 (designed binder, Cys at position 46 (H4S numbering) coupled to IANBD ester (ANBD)) MRGSHHHHHHGSVKVKFFWNGEEKEVDTSKIVWVKRAGKSVLFIYDDNGKNGYGDVCEKDAPKELLDMLARAEREKKLN | ≤ 0.5 kcal/mol |
| H4S conjugate, IANBD fluorophore coupled at position Leu31 (designed binder, Cys at position 31 (H4S numbering) coupled to IANBD ester (ANBD)) MRGSHHHHHHGSVKVKFFWNGEEKEVDTSKIVWVKRAGKSVCFIYDDNGKNGYGDVTEKDAPKELLDMLARAEREKKLN | ≥ 1.5 kcal/mol |
| H4S conjugate, IANBD fluorophore coupled at position Ser29 (designed binder, Cys at position 29 (H4S numbering) coupled to IANBD ester (ANBD)) MRGSHHHHHHGSVKVKFFWNGEEKEVDTSKIVWVKRAGKCVLFIYDDNGKNGYGDVTEKDAPKELLDMLARAEREKKLN | ≤ 0.5 kcal/mol |

Please examine the following record next.
Which ΔΔG (conjugate against H4S(wt)) value is on record for H4S conjugate, IANBD fluorophore coupled at position Phe7 (designed binder, Cys at position 7 (H4S numbering) coupled to IANBD ester (ANBD)) MRGSHHHHHHGSVKVKFCWNGEEKEVDTSKIVWVKRAGKSVLFIYDDNGKNGYGDVTEKDAPKELLDMLARAEREKKLN ?
≤ 0.5 kcal/mol
